The reader will find reported TGI values listed item by item below.
# System: LOX IMVI melanoma
# protocol_summary: NCI tumour cell line growth inhibition, 48 h
measure: TGI

molecule	target_system	measure	recorded_measurement
Cc1ccc(CN2CCN(Cc3ccc(C)o3)C(C)C2)o1 (stereo not drawn)	LOX IMVI melanoma	TGI	> 100 µM
O=c1[nH]c(=O)n(C2CC(O)C(COP(=O)(OCC(Cl)(Cl)Cl)OCC(Cl)(Cl)Cl)O2)cc1F (stereo not drawn)	LOX IMVI melanoma	TGI	> 100 µM
Nc1ncc2c(n1)-c1ccccc1OC2N1CCOCC1 (stereo not drawn)	LOX IMVI melanoma	TGI	> 100 µM
c1ccc2c(c1)[nH]c1c3ccccc3sc21	LOX IMVI melanoma	TGI	> 100 µM
NS(=O)(=O)c1cc(C(=O)O)c(Cl)c([N+](=O)[O-])c1Cl	LOX IMVI melanoma	TGI	> 100 µM
O=C(Nc1cc2cc([N+](=O)[O-])ccc2oc1=O)c1cccs1	LOX IMVI melanoma	TGI	> 100 µM
COC(=O)C1=COC2OC3CC1C2C(C)O3 (stereo not drawn)	LOX IMVI melanoma	TGI	> 100 µM
Cc1ccc(S(=O)(=O)NNC(=O)Nc2ccc([N+](=O)[O-])cc2)cc1	LOX IMVI melanoma	TGI	> 100 µM
Oc1cc(O)c2c(c1)OC(c1ccc(O)c(O)c1)C(O)C2c1c(O)cc(O)c2c1OC(c1ccc(O)c(O)c1)C(O)C2 (stereo not drawn)	LOX IMVI melanoma	TGI	> 100 µM
O=C1CCc2ccc(O)c(c2)Oc2ccc(cc2)[C@@H]2O[C@@H]2CO1	LOX IMVI melanoma	TGI	> 100 µM
O=Cc1ccc(-c2ccc(S(=O)(=O)O)cc2)o1	LOX IMVI melanoma	TGI	> 100 µM
CCc1ccccc1NC(=O)C(=O)C(C#N)c1c(Cl)cccc1Cl (stereo not drawn)	LOX IMVI melanoma	TGI	> 100 µM
c1ccc(COC[C@H]2C3OCC([C@H](OCc4ccccc4)[C@H]3OCc3ccccc3)N2Cc2ccccc2)cc1 (stereo partly drawn)	LOX IMVI melanoma	TGI	> 100 µM
CC(=O)/C=C/c1ccc(N(CCO)Cc2ccc(C(C)(C)C)cc2)cc1	LOX IMVI melanoma	TGI	134 µM
CCOC(=O)CCc1ccc(NC(=O)/C=C/c2ccc([N+](=O)[O-])o2)cc1	LOX IMVI melanoma	TGI	1.54 µM
O=C(O)c1cc(Cl)cc(Cc2cc(Cl)cc(C(=O)O)c2O)c1O	LOX IMVI melanoma	TGI	> 100 µM
Cc1ccc(O)c(C(c2cc(C)ccc2O)c2cc([N+](=O)[O-])ccc2O)c1	LOX IMVI melanoma	TGI	> 100 µM
COc1cccc(-c2nn(-c3ccccc3)cc2-c2ccnc(NCCCNS(=O)(=O)c3ccc(C(F)(F)F)cc3)c2)c1	LOX IMVI melanoma	TGI	> 100 µM
Cc1ccc(NC(=O)CCC(=O)C2Cc3ccccc3C2=O)cc1C (stereo not drawn)	LOX IMVI melanoma	TGI	> 100 µM
S=C1Cc2c(-c3ccccc3)cc(-c3ccc(Cl)cc3)nc2-c2ccccc2N1	LOX IMVI melanoma	TGI	> 46.8 µM
COc1ccc(/C=C/c2nc(=S)[nH][nH]2)cc1OC	LOX IMVI melanoma	TGI	> 100 µM
FC(F)(F)c1nc(Br)[nH]c1C(F)(F)F	LOX IMVI melanoma	TGI	> 100 µM
C[Si](C)(C)/C=C/CN1C(=O)CCC1=O	LOX IMVI melanoma	TGI	> 100 µM
O=C(CCN1CCCC1)c1ccc(Oc2ccc(F)cc2)cc1	LOX IMVI melanoma	TGI	> 100 µM
N#CC1=C(c2ccccc2)OC2(N)OC(c3ccccc3)=C(C#N)C12C#N (stereo not drawn)	LOX IMVI melanoma	TGI	> 100 µM
COc1cc(-c2ccccc2)cn2c1nc1ccccc12	LOX IMVI melanoma	TGI	52.4 µM
O=c1c2ccccc2nc(N/N=C/c2ccc(Cl)cc2)n1-c1ccccc1	LOX IMVI melanoma	TGI	> 100 µM
Cc1ccc2c(c1)C(O)(c1ccccc1)CCS2 (stereo not drawn)	LOX IMVI melanoma	TGI	36 µM
